STUDY SYSTEM: UniProtKB P11586
Sequence (P11586 whole entry, the tested form may be a part): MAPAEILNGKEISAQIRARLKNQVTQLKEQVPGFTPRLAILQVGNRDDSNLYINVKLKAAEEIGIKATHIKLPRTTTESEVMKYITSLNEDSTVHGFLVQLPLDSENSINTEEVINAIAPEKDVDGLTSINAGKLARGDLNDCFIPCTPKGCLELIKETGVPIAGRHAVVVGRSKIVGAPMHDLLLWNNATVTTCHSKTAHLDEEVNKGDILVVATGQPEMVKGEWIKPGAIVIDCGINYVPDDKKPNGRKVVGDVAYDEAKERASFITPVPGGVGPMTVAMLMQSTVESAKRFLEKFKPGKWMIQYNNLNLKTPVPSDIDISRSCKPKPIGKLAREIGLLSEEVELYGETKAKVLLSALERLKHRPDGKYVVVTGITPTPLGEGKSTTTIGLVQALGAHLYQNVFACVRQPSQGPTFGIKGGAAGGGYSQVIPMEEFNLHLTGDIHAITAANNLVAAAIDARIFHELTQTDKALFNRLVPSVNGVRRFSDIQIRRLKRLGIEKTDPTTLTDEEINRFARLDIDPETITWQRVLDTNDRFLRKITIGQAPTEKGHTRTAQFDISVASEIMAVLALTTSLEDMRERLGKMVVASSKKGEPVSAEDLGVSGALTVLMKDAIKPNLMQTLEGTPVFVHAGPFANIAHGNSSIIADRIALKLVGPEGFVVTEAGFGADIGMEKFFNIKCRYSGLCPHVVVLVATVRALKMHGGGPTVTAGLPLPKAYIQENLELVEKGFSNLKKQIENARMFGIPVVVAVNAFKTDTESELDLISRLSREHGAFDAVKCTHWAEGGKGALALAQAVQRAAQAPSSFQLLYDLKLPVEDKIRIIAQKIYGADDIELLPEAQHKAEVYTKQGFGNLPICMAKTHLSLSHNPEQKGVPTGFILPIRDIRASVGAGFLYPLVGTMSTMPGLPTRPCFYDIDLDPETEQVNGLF
PROTOCOL: Inhibition of His-tagged human MTHFD1 ( 1 to 306 residues) expressed in Escherichia coli BL21 (DE3) pre-incubated for 10 mins before folitixorin and NADP+ addition measured after 15 mins by NAD(P)H-Glo detection reagent based luminescence assay
ASSAY READOUT: pIC50
# pIC50 = -log10(concentration in molar units)

INPUT: If you can, please state the reported pIC50 value of Nc1nc(O)c2c(n1)NC[C@@H]1CN(c3ccc(C(=O)N[C@@H](CCC(=O)O)C(=O)O)cc3)C(=O)N21 .
OUTPUT: 7.02

----------
STUDY SYSTEM: Bifunctional methylenetetrahydrofolate dehydrogenase/cyclohydrolase, mitochondrial (Homo sapiens)
Sequence (P13995 whole entry): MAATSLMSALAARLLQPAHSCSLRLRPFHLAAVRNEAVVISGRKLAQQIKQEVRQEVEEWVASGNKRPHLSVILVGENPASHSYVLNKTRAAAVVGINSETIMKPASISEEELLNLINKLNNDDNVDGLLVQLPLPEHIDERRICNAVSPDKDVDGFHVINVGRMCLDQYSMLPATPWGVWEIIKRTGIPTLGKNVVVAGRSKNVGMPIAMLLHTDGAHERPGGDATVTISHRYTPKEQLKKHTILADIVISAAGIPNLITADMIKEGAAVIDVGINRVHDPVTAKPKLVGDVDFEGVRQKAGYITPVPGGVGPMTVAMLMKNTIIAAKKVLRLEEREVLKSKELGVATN
PROTOCOL: Inhibition of recombinant MTHFD2 (unknown origin) assessed as reduction in methenyl-THF formation using tetrahydrofolate, NAD and formaldehyde incubated for 30 mins by NAD-dependent dehydrogenase assay
// values below are reported IC50

Worked cases, answers included:
molecule=CC1(C)CN(C(=O)c2ccc(C(=O)O)cc2)Cc2c1nc(-c1ccccc1)[nH]c2=O recorded_value="> 30 µM"
molecule=O=C(O)c1ccc(C(=O)N2CCc3nc(-c4ccccc4)[nH]c(=O)c3C2)cc1Cl recorded_value="0.94 µM"
molecule=CN1c2ccc(C(=O)N3CCc4nc(-c5ccccc5)[nH]c(=O)c4C3)cc2CS1(=O)=O recorded_value="> 30 µM"
molecule=CS(=O)(=O)Nc1ccc(C(=O)N2CCc3nc(-c4ccccc4)[nH]c(=O)c3C2)cc1 recorded_value="> 30 µM"
molecule="O=C(O)C1CCC(C(=O)N2CCc3nc(-c4ccccc4)[nH]c(=O)c3C2)CC1 (stereo not drawn)" recorded_value="> 30 µM"
molecule=O=C(O)c1ccc(C(=O)N2CCc3nc(-c4ccccc4)[nH]c(=O)c3C2)c2ccccc12 recorded_value="1.4 µM"
molecule=O=C(O)c1ccc(C(=O)N2CCc3nc(-c4ccccc4)[nH]c(=O)c3C2)nc1 recorded_value="15 µM"

Now consider the entry below.
INPUT: If you can, please state the reported IC50 value of Cn1c(-c2ccccc2)nc2c(c1=O)CN(C(=O)c1ccc(C(=O)O)cc1)CC2 .
OUTPUT: 24 µM
